As a worked illustration, we turn to IC50 data collected for KB-8-5 (MDR1+).

>  <Compound>
CCOC(=O)/C(C)=C/[C@H](C(C)C)N(C)C(=O)[C@@H](NC(=O)[C@H](NC)C(C)(C)c1ccc(C)c(C)c1)C(C)(C)C [Example 13b]

>  <Display Unit>
nM

>  <IC50>
1410

$$$$
>  <Compound>
CN[C@H](C(=O)N[C@@H](CCC(=O)O)C(=O)N(C)[C@H](/C=C(\C)C(=O)O)C(C)C)C(C)(C)c1ccccc1

>  <Display Unit>
nM

>  <IC50>
975

$$$$
>  <Compound>
CCN(C(=O)[C@@H](NC(=O)[C@@H](NC)C(C)(C)c1ccccc1)C(C)C)[C@H](/C=C(\C)C(=O)O)C(C)C.O=C(O)C(F)(F)F

>  <Display Unit>
nM

>  <IC50>
82

$$$$
>  <Compound>
CN[C@@H](C(=O)N[C@H](C(=O)N(C)[C@H](/C=C(\C)C(=O)O)C(C)C)C(C)(C)C)C(C)(C)c1ccc(OC(C)C)cc1

>  <Display Unit>
nM

>  <IC50>
151

$$$$

====

test system: KB-3-1; assay: Cell survival assay (SRB), KB-3-1; format: cell-based, human; conditions: Homo sapiens; KB-3-1 parental; Table 8; read-out: KB-3-1 IC50
Overview of reported log10(IC50) across a group of molecules:
Measurement Name: log10(IC50) (log10 of the value in nM)

>  <Molecule>
COc1cc2cc(c1Cl)N(C)C(=O)C[C@H](OC(=O)[C@H](C)N(C)C(C)=O)[C@]1(C)O[C@H]1[C@H](C)[C@@H]1C[C@@](O)(NC(=O)O1)[C@H](OC)/C=C/C=C(\C)C2 [Maytansine]

>  <Experimental System>
KB-3-1

>  <log10(IC50)>
-1.22

$$$$
>  <Molecule>
CC(=O)O[C@@]12CO[C@@H]1C[C@H](O)[C@@]1(C)C(=O)[C@H](O)C3=C(C)[C@@H](OC(=O)[C@H](O)[C@@H](NC(=O)OC(C)(C)C)c4ccccc4)C[C@@](O)([C@@H](OC(=O)c4ccccc4)[C@H]21)C3(C)C [docetaxel, reference compound]

>  <Experimental System>
KB-3-1

>  <log10(IC50)>
-0.36

$$$$
>  <Molecule>
COc1cccc2c1C(=O)c1c(O)c3c(c(O)c1C2=O)C[C@@](O)(C(=O)CO)C[C@@H]3O[C@H]1C[C@H](N)[C@H](O)[C@H](C)O1 [adriamycin]

>  <Experimental System>
KB-3-1

>  <log10(IC50)>
1.53

$$$$
>  <Molecule>
C(=N\NC1=NCCN1)/c1c2ccccc2c(/C=N/NC2=NCCN2)c2ccccc12 [Bisantrene]

>  <Experimental System>
KB-3-1

>  <log10(IC50)>
2.08

$$$$
>  <Molecule>
O=C1c2c(O)ccc(O)c2C(=O)c2c(NCCNCCO)ccc(NCCNCCO)c21 [mitoxantrone]

>  <Experimental System>
KB-3-1

>  <log10(IC50)>
1.00

$$$$

====

system: KB-3-1; test: Cell survival assay (SRB), KB-3-1; type: cell-based, human; details: Homo sapiens, KB 3-1, read-out: In vitro IC50 (nM) KB-3-1
Measurement Name: IC50 (nM)

>  <Compound Smiles>
CN[C@H](C(=O)N[C@H](C(=O)N(C)[C@H](/C=C(/C)C(=O)O)C(C)C)C(C)(C)C)C(C)(C)c1ccccc1

>  <Endpoint Value>
28

$$$$
>  <Compound Smiles>
CN[C@H](C(=O)N[C@H](C(=O)N(C)[C@@H](/C=C(\C)C(=O)O)C(C)C)C(C)(C)C)C(C)(C)c1ccccc1

>  <Endpoint Value>
605

$$$$
